MEASURED_ATTRIBUTE: melting point (°C)

A. O=C(O)Cc1csc2ccc(Cl)cc12
B. O=C(Nc1ccc(Br)cc1Br)C(F)(F)C(F)(F)C(F)(F)C(F)(F)C(F)(F)C(F)(F)C(F)(F)C(F)(F)F
C. O=C1CCc2cc(F)ccc21
Order the items by recorded melting point; the first position goes to the largest value. Answer format: list of labels, ordered as asked.
A, B, C

====

MEASURED_ATTRIBUTE: melting point (°C)

Please review the following examples before continuing.
Quick one: melting point for CNC1CCC2(C)C(CCC3C2CCC2(C)C3CCC2C(C)N(C)C)C1 (stereo unspecified) ?
172

Data request, read-out melting point, for CC(=O)OC(OC(C)=O)c1ccccc1
46

GET /values?readout=melting point&item= CCC(Nc1ncnc(C)c1Cl)c1ccc(OC(F)F)cc1 (stereo unspecified)
47.8

Which value of melting point has been reported for NS(=O)(=O)C(F)(F)F in the records?
118

Query (compound): FC(F)C(F)F ; field requested: melting point
-89

1. Nc1cccnc1Br
2. CC12CCC(C1(C)C)C(CC(Br)=Cc1ccccc1)(C1(CC(Br)=Cc3ccccc3)C(=O)C3(C)CCC1C3(C)C)C2=O (stereo unspecified)
Given the two records 1 and 2 , choose the one whose melting point value is lower. Answer with the label corresponding to your selection.
1
(1: 77 °C, 2: 118 °C)

I. CCc1ccccc1NC(=O)c1cccc2ccccc12
II. O=C1OC(c2ccccc2)c2ccccc21 (stereo unspecified)
API: POST /compare with I and II ; response names the item with higher melting point. Please reply using the label of the selected record.
I

P. N#Cc1ccc(Br)cc1Cl
Q. CC1(C)CCCC(C)(C)N1
Hello, I am sorting some records. Could you say if P or Q has the smaller melting point value? When you have decided, please share the label of that item.
Q

P. CCCCCCCCCCCCOC(=O)c1ccc(N)cc1
Q. NC(=S)NN=C1C2CCCC1C1(O)CCCCC1C2 (stereo unspecified)
// compare measured melting point between P and Q ; output the lower one Give the chosen item's label as your response.
P

1. OC(CCN1CCCCC1)(c1ccccc1)C1CC2C=CC1C2 (stereo unspecified)
2. COc1ccc(-c2onc(C(=O)c3ccc(C)cc3)c2S(=O)(=O)c2ccccc2)cc1
Rank 1 against 2 by their melting point values and give the higher one. Which one? Tell me its label.
2

====

// melting point lookup, one value per entry

What measured melting point goes with CN=C1CN(O)C(c2ccccc2)=c2cc(Cl)ccc2=N1 ?
236 °C

melting point for N#Cc1ccc(-c2ccsc2)cc1 ?
109 to 111 °C

Form field: reported melting point of CCOc1cc2c(cc1OCC)C(CC(=O)O)NCC2 (stereo unspecified)
259 to 260 °C

Name the recorded melting point for OCc1ccc(-c2ccncc2)cc1 .
173 to 176 °C

More entries:
Name the recorded melting point for C=CC1=C(C=NNc2ccc([N+](=O)[O-])cc2[N+](=O)[O-])CCCC1 .
152 to 153 °C

Fill blank: measured melting point of the molecule O=C1OC(OC2OC(=O)c3ccccc32)c2ccccc21 (stereo unspecified) is ____.
222 °C

====

MEASURED_ATTRIBUTE: melting point (°C)

Below are worked cases with known answers.
I would be grateful if you could share the reported melting point for Cc1ccc(C(C)(Cl)C(=O)O)cc1 (configuration not stated) .
112

// query melting point value for entry C1CCCCCCCCC1
10

Quick one: melting point for Cc1cc(/C=C/c2ccccc2N)c(N)cc1N ?
151

So what's the measured melting point for this one? CCOC(=O)CNc1cc(NCC(=O)OCC)c([N+](=O)[O-])cc1[N+](=O)[O-]
198

Would you kindly share the measured melting point for O=C1OC(c2cc(Br)c(O)c(Br)c2)(c2cc(Br)c(O)c(Br)c2)c2ccccc21 ?
296

Fill in: melting point of CN1C(=O)CN=C(c2ccccc2F)c2cc(Cl)ccc21 is ___
296

P. Cn1c(=O)c(C2=NNC(=O)C2=NNc2ccc(Cl)cc2)c(O)c2ccccc21
Q. Cc1ccc2c(c1)CCC(C)C2 (configuration not stated)
R. CC(C)C1CCCCC1
Order the records, beginning with the lowest melting point and ending with the highest. Form entry: labels listed in requested order.
R, Q, P

// provenance: a melting point compilation (Tetko et al.)
